Target: aromatase (Homo sapiens)
Construct: incubated with 5 ml of a placental microsomes; from tissue; host or cells: placental microsomes
Sequence (P11511 whole entry): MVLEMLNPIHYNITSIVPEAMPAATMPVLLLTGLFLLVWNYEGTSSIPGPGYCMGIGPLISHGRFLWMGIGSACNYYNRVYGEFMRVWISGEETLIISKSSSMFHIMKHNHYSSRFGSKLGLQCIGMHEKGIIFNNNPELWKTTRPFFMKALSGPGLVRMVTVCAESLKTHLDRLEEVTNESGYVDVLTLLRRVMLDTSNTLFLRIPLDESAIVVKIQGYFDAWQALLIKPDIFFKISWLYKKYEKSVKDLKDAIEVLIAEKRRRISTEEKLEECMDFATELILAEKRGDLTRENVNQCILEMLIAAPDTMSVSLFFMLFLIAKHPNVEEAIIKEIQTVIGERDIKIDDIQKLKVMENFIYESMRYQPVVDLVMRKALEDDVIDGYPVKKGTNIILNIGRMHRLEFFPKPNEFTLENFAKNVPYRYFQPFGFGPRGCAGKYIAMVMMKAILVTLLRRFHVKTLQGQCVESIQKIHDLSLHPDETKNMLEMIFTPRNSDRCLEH
Assay: Inhibition of formic acid formation from [19,19,19-3H]androst-4-ene-3,17-dione by placental microsomes
Format: biochemical
Conditions: placental microsomes 1 mg/ml (5 ml), pH 7.2, 37° C., 30 minutes; inhibitor 4 n mole, androstenedione 4 n mole; NADPH
Quantity: % Inhibition of formic acid formation (%)
Respond numerically; units are % and should not be typed.

Problem: Sample `C=C1C=C2CC[C@H]3[C@@H]4CC[C@H](O)[C@@]4(C)CC[C@@H]3[C@@]2(C)CC1` — what was its % Inhibition of formic acid formation?
Result: 43

Problem: Sample `C=C1C=C2CC[C@@H]3[C@H](CC[C@]4(C)C(=O)CC[C@@H]34)[C@@]2(C)CC1` — what was its % Inhibition of formic acid formation?
Result: 86

Problem: Sample `C=C1C=C2CC[C@@H]3[C@H](CC[C@]4(C)C(=O)CC[C@@H]34)[C@@]2(C=O)CC1` — what was its % Inhibition of formic acid formation?
Result: 70

Problem: Sample `C=C1C=C2CC[C@@H]3[C@H](CC[C@]4(C)C(=O)CC[C@@H]34)[C@@]2(CO)CC1` — what was its % Inhibition of formic acid formation?
Result: 90

Problem: Sample `C=C1C=C2CC[C@@H]3[C@H](CC[C@]4(C)[C@@H](O)CC[C@@H]34)[C@@]2(CO)CC1` — what was its % Inhibition of formic acid formation?
Result: 55

From: patent US4546098A
